assay: Fluorescence decay times (phase-shift method); type: physicochemical; conditions: ca. 5 μM, air-equilibrated buffer pH 7.4, λexc = 420 nm, λem > 600 nm
Threshold 90%. A2, relative weight of slow component below it: TRUE. A2, relative weight of slow component at it or above: FALSE.

Exercise: # check: A2, relative weight of slow component < 90% for "CCCCCCCCCCCCCCCCCCCCCC[n+]1ccc(-c2c3nc(c(-c4cc[n+](C)cc4)c4ccc([nH]4)c(-c4cc[n+](C)cc4)c4nc(c(-c5cc[n+](C)cc5)c5ccc2[nH]5)C=C4)C=C3)cc1.Cl.Cl.[Cl-].[Cl-].[Cl-].[Cl-]"
Solution: TRUE

Exercise: Find out if reported A2, relative weight of slow component for "CCCCCCCCCCCCCC[n+]1ccc(-c2c3nc(c(-c4cc[n+](C)cc4)c4ccc([nH]4)c(-c4cc[n+](C)cc4)c4nc(c(-c5cc[n+](C)cc5)c5ccc2[nH]5)C=C4)C=C3)cc1.Cl.Cl.[Cl-].[Cl-].[Cl-].[Cl-]" is less than 90%
Solution: FALSE

Exercise: Strictly below 90% in A2, relative weight of slow component? "CCCCCCCCCCCCCCCCCC[n+]1ccc(-c2c3nc(c(-c4cc[n+](C)cc4)c4ccc([nH]4)c(-c4cc[n+](C)cc4)c4nc(c(-c5cc[n+](C)cc5)c5ccc2[nH]5)C=C4)C=C3)cc1.Cl.Cl.[Cl-].[Cl-].[Cl-].[Cl-]"
Solution: FALSE

Exercise: In the record for "CCCCCCCCCC[n+]1ccc(-c2c3nc(c(-c4cc[n+](C)cc4)c4ccc([nH]4)c(-c4cc[n+](C)cc4)c4nc(c(-c5cc[n+](C)cc5)c5ccc2[nH]5)C=C4)C=C3)cc1.Cl.Cl.[Cl-].[Cl-].[Cl-].[Cl-]" , is A2, relative weight of slow component less than 90%?
Solution: FALSE

Exercise: Quick check: does C[n+]1ccc(-c2c3nc(c(-c4cc[n+](C)cc4)c4ccc([nH]4)c(-c4cc[n+](C)cc4)c4nc(c(-c5cc[n+](C)cc5)c5ccc2[nH]5)C=C4)C=C3)cc1.Cc1ccc(S(=O)(=O)[O-])cc1.Cc1ccc(S(=O)(=O)[O-])cc1.Cc1ccc(S(=O)(=O)[O-])cc1.Cc1ccc(S(=O)(=O)[O-])cc1 [Porphyrin T4MPyP, reference compound] have A2, relative weight of slow component under 90%?
Solution: TRUE

----------
Provide the reported τ^N2, triplet lifetime of each item.
experiment: Triplet state properties by laser flash photolysis; format: physicochemical; details: phosphate-buffered solution, N2
# number then unit; no other words

Exercise: Which τ^N2, triplet lifetime is listed for "CCCCCCCCCCCCCC[n+]1ccc(-c2c3nc(c(-c4cc[n+](C)cc4)c4ccc([nH]4)c(-c4cc[n+](C)cc4)c4nc(c(-c5cc[n+](C)cc5)c5ccc2[nH]5)C=C4)C=C3)cc1.Cl.Cl.[Cl-].[Cl-].[Cl-].[Cl-]" ?
Solution: 70 μs

Exercise: Given the compound "CCCCCCCCCCCCCCCCCC[n+]1ccc(-c2c3nc(c(-c4cc[n+](C)cc4)c4ccc([nH]4)c(-c4cc[n+](C)cc4)c4nc(c(-c5cc[n+](C)cc5)c5ccc2[nH]5)C=C4)C=C3)cc1.Cl.Cl.[Cl-].[Cl-].[Cl-].[Cl-]" , what is its reported τ^N2, triplet lifetime?
Solution: 74 μs

Exercise: What value of τ^N2, triplet lifetime has been recorded for this entry: C[n+]1ccc(-c2c3nc(c(-c4cc[n+](C)cc4)c4ccc([nH]4)c(-c4cc[n+](C)cc4)c4nc(c(-c5cc[n+](C)cc5)c5ccc2[nH]5)C=C4)C=C3)cc1.Cc1ccc(S(=O)(=O)[O-])cc1.Cc1ccc(S(=O)(=O)[O-])cc1.Cc1ccc(S(=O)(=O)[O-])cc1.Cc1ccc(S(=O)(=O)[O-])cc1 [Porphyrin T4MPyP, reference compound]
Solution: 91 μs

Exercise: Give its τ^N2, triplet lifetime value. Item: "CCCCCCCCCC[n+]1ccc(-c2c3nc(c(-c4cc[n+](C)cc4)c4ccc([nH]4)c(-c4cc[n+](C)cc4)c4nc(c(-c5cc[n+](C)cc5)c5ccc2[nH]5)C=C4)C=C3)cc1.Cl.Cl.[Cl-].[Cl-].[Cl-].[Cl-]"
Solution: 67 μs
